testedTarget: Recombinant human FAP (Homo sapiens)
Construct: purchased R&D systems
Sequence (Q12884 1-760): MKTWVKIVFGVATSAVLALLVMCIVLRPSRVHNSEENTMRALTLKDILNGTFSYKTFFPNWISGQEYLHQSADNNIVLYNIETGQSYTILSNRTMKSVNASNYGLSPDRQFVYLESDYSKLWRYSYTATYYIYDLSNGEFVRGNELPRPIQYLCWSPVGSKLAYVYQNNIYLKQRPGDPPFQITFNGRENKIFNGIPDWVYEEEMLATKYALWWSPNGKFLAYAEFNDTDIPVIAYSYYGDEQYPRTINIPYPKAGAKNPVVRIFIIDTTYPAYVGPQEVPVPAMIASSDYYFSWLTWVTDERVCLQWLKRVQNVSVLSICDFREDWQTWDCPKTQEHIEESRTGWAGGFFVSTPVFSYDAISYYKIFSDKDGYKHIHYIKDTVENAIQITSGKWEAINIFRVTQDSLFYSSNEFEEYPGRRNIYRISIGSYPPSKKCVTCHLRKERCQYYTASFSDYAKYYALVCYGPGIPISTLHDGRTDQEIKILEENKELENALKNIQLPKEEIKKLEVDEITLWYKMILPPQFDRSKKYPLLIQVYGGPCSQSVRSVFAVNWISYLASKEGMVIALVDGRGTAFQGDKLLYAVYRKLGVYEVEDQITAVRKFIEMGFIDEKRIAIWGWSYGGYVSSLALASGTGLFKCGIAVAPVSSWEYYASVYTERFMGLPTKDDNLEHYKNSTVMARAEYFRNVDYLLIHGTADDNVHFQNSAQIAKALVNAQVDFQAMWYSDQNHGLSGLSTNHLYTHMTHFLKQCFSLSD
protocolText: FAP FRET assay, FGF21-sequence FRET peptide substrate
Assay type: biochemical
conditionSet: FRET peptide with human FGF21 sequence, 6 μM, 37° C.
pIC50: −log10 of the molar value.
# binarize pIC50: threshold 8 inclusive, high side y, low side n

Worked cases, answers included:
{"smilesStructure": "N#C[C@@H]1CCCN1C(=O)CN1CCC(Oc2ccnc3cc(Cl)ccc23)CC1", "label": "n"}
{"smilesStructure": "N#C[C@@H]1C[C@H](F)CN1C(=O)CN1CC[C@H](Nc2ccc(C(=O)Nc3ccccn3)c3ncccc23)C1", "label": "y"}

Does N#C[C@@H]1CCCN1C(=O)CN1CC[C@@H](Nc2ccnc3ccc(Cl)cc23)C1 have a reported pIC50 of at least 8?
y

Does COc1ccc2cc(N(C)C3CCN(CC(=O)N4CCC[C@H]4C#N)CC3)cnc2c1 have a reported pIC50 of at least 8?
n

Does N#C[C@@H]1C[C@H](F)CN1C(=O)CN1CCC(Nc2cc(=O)oc3ccccc23)CC1 have a reported pIC50 of at least 8?
n

Does COc1ccc2nccc(N[C@@H]3CCN(CC(=O)N4C[C@@H](F)C[C@H]4C#N)C3)c2c1 have a reported pIC50 of at least 8?
n
